- Test Target: T1, biotinylated CD32bECDHis (human, UniProt P31994 43-223, limits assumed, biotinylated (sites not given))
- T1 sequence (looked up): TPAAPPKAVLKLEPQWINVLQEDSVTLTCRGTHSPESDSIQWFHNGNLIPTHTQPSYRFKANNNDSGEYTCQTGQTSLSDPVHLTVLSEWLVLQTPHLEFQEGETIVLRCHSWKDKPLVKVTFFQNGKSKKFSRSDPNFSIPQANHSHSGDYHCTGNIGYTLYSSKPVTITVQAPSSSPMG
- Assay Explanation: competition ELISA, competitor 2B6
Overview of reported % residual binding across a group of binders:

Binder	% residual binding [%]
Antibody 022 (antibody, V domains shown, also called HuMab 022) VH: QVQLVQSGAEVKKPGASVKVSCKASGYTFTSYGLSWVRQAPGQGLEWMGWISPYNGNTHYAQKLQGRVTMTTDTSTSTADMDLRSLRSDDTAVYYCARASAAHGMDVWGQGTTVTVSS VL: DIQMTQSPSSLSASVGDRVTITCRASQGISSWLAWYQQKPEKAPKSLIYAASSLQSGVPSRFSGSRSGTDFTLTISSLQPEDFATYYCQQYNSYPYTFGQGTKLEIKR	96
Antibody 024 (antibody, V domains shown, also called HuMab 024) VH: QVQLVQSGAEVKKPGASVKVSCKASGYTFTSYGLSWVRQAPGQGLEWMGWISPYNGNTHYAQKLQGRVTMTTDTSTSTAYMDLRSLRSDDTAVYYCARDSAAHGMDVWGQGTTVTVSS VL: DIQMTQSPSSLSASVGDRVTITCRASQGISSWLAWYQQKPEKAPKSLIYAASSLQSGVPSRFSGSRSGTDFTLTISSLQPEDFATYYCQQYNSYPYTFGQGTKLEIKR	98
